Readings of IC50 for the listed compounds
Molecular target: His-tagged recombinant human TrkA (Homo sapiens, UniProt P04629)
Construct: 6HIS tagged cytoplasmic domain from Invitrogen, Catalog No. PV3144
Sequence (P04629 440-796 limits assumed): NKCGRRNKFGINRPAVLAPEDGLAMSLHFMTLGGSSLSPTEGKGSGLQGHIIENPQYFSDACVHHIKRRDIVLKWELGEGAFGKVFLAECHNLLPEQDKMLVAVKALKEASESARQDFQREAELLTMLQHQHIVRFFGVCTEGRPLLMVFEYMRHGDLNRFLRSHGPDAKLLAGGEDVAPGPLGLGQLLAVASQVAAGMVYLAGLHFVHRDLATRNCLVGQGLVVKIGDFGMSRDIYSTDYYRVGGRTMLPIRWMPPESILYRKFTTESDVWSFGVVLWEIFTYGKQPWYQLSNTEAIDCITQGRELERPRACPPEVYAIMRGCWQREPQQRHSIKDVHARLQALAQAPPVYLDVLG
Experiment: TrkA LanthaScreen Eu Kinase Binding Assay
Details: averaged IC50 values; read-out: TrkA enzyme IC50

Take a look at these entries with their results.
> print(dat)
                                   compound  observable  reported.measurement
1  COCCN1C[C@@H](NC(=O)Nc2c(-c3ccccc3)nc3c(C)cccn23)[C@H](c2ccccc2)C1 (relative stereo) [Example 11]        IC50              < 100 nM
2  COCCN1C[C@@H](NC(=O)NC2=C(c3ccccc3)C(=O)c3ccccc32)[C@H](c2ccc(F)c(F)c2)C1        IC50        100 to 1000 nM
3  COCCN1C[C@@H](NC(=O)Nc2c(-c3ccccc3)nc3sc(C)cn23)[C@H](c2ccccc2)C1 (relative stereo)        IC50        100 to 1000 nM
4  COCCN1C[C@@H](NC(=O)Nc2c(-c3ccccc3)nc3c(F)cccn23)[C@H](c2ccccc2)C1        IC50              < 100 nM
5  COCCN1C[C@@H](NC(=O)Nc2cccc3c(-c4ccccc4)n[nH]c23)[C@H](c2ccccc2)C1 (relative stereo)        IC50              < 100 nM
6  COCCN1C[C@@H](NC(=O)Nc2cccc3cn[nH]c23)[C@H](c2ccccc2)C1 (relative stereo) [Example 1, di-trifluoroacetate]        IC50        100 to 1000 nM

Here is the next item to consider.
Hi! What's the reported IC50 for COCCN1C[C@@H](NC(=O)Nc2c(-c3ccccc3)nc3c(C)nccn23)[C@H](c2ccc(F)cc2)C1 on His-tagged recombinant human TrkA (Homo sapiens, UniProt P04629)?
< 100 nM
